system: Torsin-1A-interacting protein 1 (Homo sapiens) (UniProt Q5JTV8)
Sequence (Q5JTV8 whole entry, looked up): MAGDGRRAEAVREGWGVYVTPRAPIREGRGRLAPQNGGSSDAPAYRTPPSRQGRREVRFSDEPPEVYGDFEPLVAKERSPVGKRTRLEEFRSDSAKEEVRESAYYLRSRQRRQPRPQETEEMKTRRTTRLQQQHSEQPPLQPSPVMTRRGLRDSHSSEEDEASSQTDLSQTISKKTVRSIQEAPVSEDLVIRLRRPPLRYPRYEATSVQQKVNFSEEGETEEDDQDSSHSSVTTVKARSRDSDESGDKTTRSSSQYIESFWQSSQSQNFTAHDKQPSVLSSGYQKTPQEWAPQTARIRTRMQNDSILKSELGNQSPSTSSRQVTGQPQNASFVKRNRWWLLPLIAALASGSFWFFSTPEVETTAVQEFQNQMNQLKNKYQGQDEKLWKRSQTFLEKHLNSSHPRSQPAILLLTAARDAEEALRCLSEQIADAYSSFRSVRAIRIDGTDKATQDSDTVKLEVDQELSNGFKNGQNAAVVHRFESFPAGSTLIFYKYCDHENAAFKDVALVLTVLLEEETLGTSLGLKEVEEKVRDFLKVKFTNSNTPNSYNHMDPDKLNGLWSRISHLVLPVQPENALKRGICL
test description: LAP1 binders from COS7 cell lysate, primary screen, small-molecule microarray, 635/667 nm fluorescence (AID 1116)
stated conditions: COS7-hLAP1 lysate binding, 635 nm fluorescence, higher = more signal
Lab note: class by composite z-score, see 1 = under 0.02, 2 = from 0.02 up to 0.8, 3 = 0.8 and over

Kindly identify the class of CCOC(=O)C[C@H]1[C@H](OC(=O)c2ccc(-c3ccccc3)cc2)[C@@H](NC(=O)c2ccc(-c3ccccc3)cc2)c2cc(OCCCO)ccc2N1C(=O)c1ccccc1 . 2

Quick one: COc1ccc(CCNC(=O)[C@@H]2c3ccccc3C(=O)N(C(C)C)[C@H]2c2ccc(CO)cc2)cc1 2

Quick one: COCCCNC(=O)[C@@]1(Cc2ccccc2I)c2ccccc2C(=O)N(Cc2ccccc2C(F)(F)F)[C@H]1c1ccc(CO)cc1 1

Quick one: O=C(CS)NCCCCCCNC(=O)[C@H]1C[C@H]2C(=O)NCC(=O)N2[C@H]1c1cccc(OCCO)c1 2

Quick one: COCCOC(=O)N1C(=O)[C@@]2(c3cc(C#CCCO)ccc31)[C@H](C(=O)N1CCN(c3ncccn3)CC1)[C@H]1C(=O)O[C@H](c3ccccc3)[C@H](c3ccccc3)N1[C@@H]2c1ccc(OCCO)cc1 3

Quick one: CC(C)C[C@H]1NC(=O)CNC(=O)[C@@]23C(=O)N[C@@H](Cc4ccccc4)C2[C@H](C)[C@@]2(C)O[C@H]2C3/C=C/C/C=C\CNC1=O (some centres not stated) 1

Quick one: COc1c(C)cc(-c2cc3c(c(CCc4ccccc4)n2)[Si](C(C)C)(C(C)C)O[C@H]3c2ccccc2)cc1C 1

Quick one: CN1C(=O)C2CC=C(C3=CCO[C@@H]3[C@H]3CCCN3S(=O)(=O)c3ccccc3[N+](=O)[O-])CC2C1=O (some centres not stated) 1

Quick one: C=C(CC1([C@@H](NP(=O)(c2ccccc2)c2ccccc2)[C@H]2C[C@@H]2CCCC)CC1)c1cccc(OC)c1 2

Quick one: CCCC1(C(=O)OC)C=C2C(=C(C(C)C)C(=O)C2C)CN1 (configuration not stated) 3

Quick one: CC[C@@H]1C=C(C(=O)O)[C@H](c2cccc(Cl)c2)N1S(=O)(=O)c1ccc(C)cc1 3

---

system: Streptavidin (Streptomyces avidinii) (UniProt P22629)
Sequence (P22629 whole entry, looked up): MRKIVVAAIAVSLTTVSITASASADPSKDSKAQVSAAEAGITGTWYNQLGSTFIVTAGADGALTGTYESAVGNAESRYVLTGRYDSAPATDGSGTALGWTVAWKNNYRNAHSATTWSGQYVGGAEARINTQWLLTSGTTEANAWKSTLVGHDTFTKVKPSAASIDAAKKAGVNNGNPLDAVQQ
test description: streptavidin binders on small-molecule microarray, primary screen, artefact control for SMM compound annotation, biophysical, 635/667 nm fluorescence (AID 1147);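 note: signal reflects streptavidin binding to arrayed compounds as a control protein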
stated conditions: streptavidin binding, higher = more signal
Can you tell me composite z-score for the items I'm about to list?

Record request: composite z-score value, item COC(=O)C(CC#Cc1ccc2c(c1)[C@]1(C(=O)N2)[C@H](C(=O)N2CCCCCCC2)[C@H]2C(=O)O[C@H](c3ccccc3)[C@H](c3ccccc3)N2[C@@H]1c1ccc(OCCO)cc1)C(=O)OC 4.12

Quick one: O=C1c2ccccc2[C@@]2(Cc3ccccc3N(CC(F)(F)F)C2=O)[C@H](c2ccc(CO)cc2)N1Cc1ccccc1 0.0298

Quick one: COC(=O)C(CC#Cc1ccc2c(c1)[C@]1(C(=O)N2)[C@H](c2ccc(OCCO)cc2)N2[C@H](c3ccccc3)[C@H](c3ccccc3)OC(=O)[C@H]2[C@@H]1C(N)=O)C(=O)OC 1.42

Quick one: CCCCCCc1nc(-c2ccc(OC)nc2)c(C)c2c1[Si](C(C)C)(C(C)C)OC2 -0.2

Quick one: COc1ccc(CCNC(=O)[C@@]2(C)c3ccccc3C(=O)N(Cc3ccc(OC(F)(F)F)cc3)[C@H]2c2ccc(CO)cc2)cc1 -0.535

Quick one: O=C1C[C@@](C(=O)NCC(F)(F)F)(c2ccc([N+](=O)[O-])cc2)[C@@H](c2ccc(CO)cc2I)N1CC12CC3CC(CC(C3)C1)C2 0.229
